target: hKv7.2/7.3 (Homo sapiens, UniProt O43525+O43526); construct: host or cells: HEK cells, tetracycline-inducible expression; assay: Kv7.2/7.3 Activation Assay, QPatch planar patch-clamp single concentration screen; type: cell-based; conditions: increase in current over baseline, Kv7.2/Kv7.3 co-expressing HEK cells, compound concentration 3 μM, steady-state current at end of 2 s pulse to −30 mV
recordedMetric: QPatch Kv7.2/7.3 Activity

CC(C)(O)CC(=O)Nc1nn2ccc(C(F)(F)F)cc2c1-c1ccc(F)cc1 ... + (2.0-3.99 (+))
CC(C)(C)CC(=O)Nc1nn2ccc(C3(O)CCC3)cc2c1C1CCC1 ... ++ (4.0-5.99 (++))
C[C@@](O)(CC(=O)Nc1nn2ccc(C(F)(F)F)cc2c1-c1cccc(F)c1)c1ccccn1 ... + (2.0-3.99 (+))
CC(C)(O)CC(=O)Nc1nn2ccc(C(F)(F)F)cc2c1-c1ccc(OC(F)(F)F)cc1 ... + (2.0-3.99 (+))
CC(C)(C)CC(=O)Nc1nn2ccc(C(F)(F)F)cc2c1C1CCC1 ... + (2.0-3.99 (+))

Recorded QPatch Kv7.2/7.3 Activity (molecule C[C@@](O)(CC(=O)Nc1nn2ccc(C(F)(F)F)cc2c1-c1ccc(F)cc1)c1ccccn1 ): ++ (4.0-5.99 (++))

Consider O=C(CC1(O)CCCC1)Nc1nn2ccc(Cl)cc2c1C1CCC1 . Its measured QPatch Kv7.2/7.3 Activity is + (2.0-3.99 (+))

Reported QPatch Kv7.2/7.3 Activity ( C[C@@](O)(CC(=O)Nc1nn2ccc(C(F)(F)F)cc2c1C1CCC1)c1ccccc1 ) = − (<1.2-fold (−))
